FYI, the data here is from patent US10428140B2.

# Target Or System: T1, human EphA6 (Homo sapiens, UniProt Q9UF33)
# T1 construct: a protein of the extracellular region of each human Eph receptor fused with the SEAP protein and the His tag; made in house; host or cells: Expi293F cells (culture supernatant)
# T1 sequence (Q9UF33 23-550 limits assumed): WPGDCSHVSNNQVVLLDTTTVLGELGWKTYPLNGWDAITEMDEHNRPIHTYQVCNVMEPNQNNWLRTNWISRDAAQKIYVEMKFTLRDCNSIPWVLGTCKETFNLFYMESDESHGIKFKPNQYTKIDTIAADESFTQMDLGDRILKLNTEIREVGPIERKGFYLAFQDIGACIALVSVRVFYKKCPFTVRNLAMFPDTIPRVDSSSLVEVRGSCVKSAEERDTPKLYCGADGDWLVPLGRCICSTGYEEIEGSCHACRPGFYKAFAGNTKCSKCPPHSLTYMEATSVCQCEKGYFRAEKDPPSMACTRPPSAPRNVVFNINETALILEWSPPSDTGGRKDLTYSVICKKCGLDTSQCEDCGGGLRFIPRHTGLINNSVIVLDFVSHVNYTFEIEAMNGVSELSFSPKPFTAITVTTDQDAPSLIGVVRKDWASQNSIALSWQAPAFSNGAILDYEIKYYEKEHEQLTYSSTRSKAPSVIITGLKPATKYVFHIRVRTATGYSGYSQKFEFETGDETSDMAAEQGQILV
# Measurement Notes: Selectivity ELISA of humanized antibodies for human Eph receptor
# Format: binding
# Condition Details: coated protein 1 nM
// reported hEphA6-SEAP-: absorbance at 450 nm, percentage with respect to hEphA4-SEAP-His as 100% per item
State just the number; it will be interpreted in %.

Molecule	Observed Measurement
159 (antibody, V domains shown, synthetic humanized antibody heavy chain variable region sequence; synthetic humanized antibody light chain variable region sequence) VH: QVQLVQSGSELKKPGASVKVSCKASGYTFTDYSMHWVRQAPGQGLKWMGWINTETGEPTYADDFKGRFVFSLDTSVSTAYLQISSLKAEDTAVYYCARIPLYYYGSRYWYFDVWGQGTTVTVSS VL: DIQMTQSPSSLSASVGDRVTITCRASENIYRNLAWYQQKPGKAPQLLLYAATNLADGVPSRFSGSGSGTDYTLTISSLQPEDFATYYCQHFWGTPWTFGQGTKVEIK	7.6

GET /values?readout=hEphA6-SEAP-: absorbance at 450 nm, percentage with respect to hEphA4-SEAP-His as 100%&item= 155 (antibody, V domains shown, synthetic humanized antibody heavy chain variable region sequence; synthetic humanized antibody light chain variable region sequence) VH: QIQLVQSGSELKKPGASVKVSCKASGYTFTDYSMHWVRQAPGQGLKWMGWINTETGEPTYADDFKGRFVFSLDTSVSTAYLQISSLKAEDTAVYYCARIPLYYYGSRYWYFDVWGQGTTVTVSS VL: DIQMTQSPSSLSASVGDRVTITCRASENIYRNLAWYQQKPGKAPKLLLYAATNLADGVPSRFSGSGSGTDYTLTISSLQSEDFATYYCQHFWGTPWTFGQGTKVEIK
7.2

GET /values?readout=hEphA6-SEAP-: absorbance at 450 nm, percentage with respect to hEphA4-SEAP-His as 100%&item= 156 (antibody, V domains shown, synthetic humanized antibody heavy chain variable region sequence; synthetic humanized antibody light chain variable region sequence) VH: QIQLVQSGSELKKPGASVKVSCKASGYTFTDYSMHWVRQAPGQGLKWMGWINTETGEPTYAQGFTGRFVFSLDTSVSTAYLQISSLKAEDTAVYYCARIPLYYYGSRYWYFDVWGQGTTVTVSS VL: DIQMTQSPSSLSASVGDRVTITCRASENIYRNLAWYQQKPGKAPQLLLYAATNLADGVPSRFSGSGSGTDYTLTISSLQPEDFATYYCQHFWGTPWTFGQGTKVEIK
8.9

GET /values?readout=hEphA6-SEAP-: absorbance at 450 nm, percentage with respect to hEphA4-SEAP-His as 100%&item= 93 (antibody, V domains shown, constant regions without entry; synthetic humanized antibody light chain variable region sequence; synthetic humanized antibody heavy chain variable region sequence) VL: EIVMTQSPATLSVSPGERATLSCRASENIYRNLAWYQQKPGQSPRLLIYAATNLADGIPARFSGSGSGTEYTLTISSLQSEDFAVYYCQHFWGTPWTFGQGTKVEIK VH: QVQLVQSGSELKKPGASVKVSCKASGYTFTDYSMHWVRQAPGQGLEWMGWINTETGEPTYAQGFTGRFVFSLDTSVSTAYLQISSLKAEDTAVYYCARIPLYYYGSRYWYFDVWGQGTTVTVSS
7.1
